Reference source for all entries: paper PMC10056636

# protocol.summary: in vitro
# Assay type: cell-based, human
# applied.conditions: human, CC50
measured.property: CC50 at 20 h (mg/L)
Field format: number, assumed mg/L, no unit text.

compound	measured.property	readout.value
COC(=O)/C(CCC=C(C)C)=C1\[C@@H](OC(C)=O)C[C@@]2(C)[C@H]1C[C@@H](O)[C@H]1[C@@]3(C)CC[C@H](NCCN)[C@@H](C)[C@@H]3CC[C@@]12C	CC50 at 20 h	7.77

Switching to the query record.
Quick check: CC50 at 20 h of CC/C(=C(\c1ccccc1)c1ccc(OCCN(C)C)cc1)c1ccccc1 [Tamoxifen, reference compound] ?
9
